Just for reference, paper PMC8746528 is where these values come from.

Tested on: normal human fibroblasts (WI-38)
procedure text: MTT cytotoxicity towards normal fibroblasts
Assay type: cell-based
condition details: WI-38; MTT, normal human fibroblasts
measure name: pIC50
The scale used: pIC50 is minus the common logarithm of the concentration in molar units.

Below, 2 molecules whose answers are already recorded.
>>> df
                                   molecule  measure_name  assay_result
0  Fc1cccc(-c2n[nH]c3c(Nc4ccccc4)ncnc23)c1 [35b]         pIC50          4.91
1  Fc1cccc(-c2c[nH]c3c(Nc4ccccc4)nccc23)c1 [14b]         pIC50          4.70

Let us examine a further case.
Look up pIC50 with normal human fibroblasts (WI-38) for this molecule: Fc1cccc(-c2c[nH]c3c(Nc4ccccc4)ncnc23)c1 [26b] 4.77

----------
melting point listing for selected molecules.

Examples from the recorded data:
>>> print(df.to_string())
                                   molecule   assay_result
0  Fc1cccc(-c2c[nH]c3c(Nc4ccccc4)nccc23)c1 [14b]  168 to 169 °C
1  COc1cc(Nc2ncnc3c(-c4cccc(F)c4)c[nH]c23)cc(OC)c1OC [26d]  139 to 140 °C
2  c1ccc(Nc2nccc3c(-c4ccccc4)c[nH]c23)cc1 [14a]  139 to 140 °C

# get_value(readout='melting point', item= CN1CCN(c2ncnc3c(-c4ccccc4)c[nH]c23)CC1 [26e] ) > 250 °C

Now consider COc1ccc(Cn2cc(-c3ccccc3)c3ccnc(N4CCN(C)CC4)c32)cc1 [13a] . 88 to 89 °C

// next record c1ccc(Nc2ncnc3c(-c4ccccc4)c[nH]c23)cc1 [26a] > 250 °C

// same read-out, input: COc1cc(Nc2ncnc3c(-c4ccccc4)n[nH]c23)cc(OC)c1OC [35c] > 250 °C

Further, for COc1cc(Nc2ncnc3c(-c4ccccc4)c[nH]c23)cc(OC)c1OC [26c] ? > 250 °C

Could you do the same for COc1ccc(Cn2cc(-c3ccccc3)c3ncnc(N4CCN(C)CC4)c32)cc1 [25a] , please? 150 to 151 °C

COc1ccc(Cn2cc(-c3ccccc3)c3ccnc(Nc4cc(OC)c(OC)c(OC)c4)c32)cc1 [10c] ? 136 to 137 °C

----------
# maps each entry to its pIC50
Test system: PC-3 prostate cancer cell line
procedure text: MTT cell viability assay, PC-3
Format: cell-based
condition details: Homo sapiens, treatment 72 h and 96 h, mean ± SD of three experiments
In textbook form, pIC50 equals minus log to base ten of the concentration in mol/L.

>>> print(df.to_string())
                                   molecule                     system_name  measure_name  assay_result
0  COc1ccc(Cn2cc(-c3cccc(F)c3)c3ccnc(N4CCN(C)CC4)c32)cc1 [13b]  PC-3 prostate cancer cell line         pIC50          5.03

As a next step, examine the molecule that follows.
Requested field: pIC50. Item: COc1ccc(Cn2cc(-c3ccccc3)c3ncnc(Nc4cc(OC)c(OC)c(OC)c4)c32)cc1 [24c] 5.65

----------
Recorded measurements of pIC50, one per entry
Tested on: PC-3 prostate cancer cell line
procedure text: MTT cell viability assay, PC-3
Type: cell-based
condition details: Homo sapiens, treatment 72 h and 96 h, mean ± SD of three experiments
For clarity, pIC50 is expressed as the negative log10 of concentration in mol/L.

Use these answered entries as a reference point.
                                   compound  measure_name  assay_result
0  CN1CCN(c2nccc3c(-c4ccccc4)c[nH]c23)CC1 [14e]         pIC50          5.76
1  COc1cc(Nc2ncnc3c(-c4ccccc4)c[nH]c23)cc(OC)c1OC [26c]         pIC50          5.01
2  COc1ccc(Cn2cc(-c3ccccc3)c3ccnc(N4CCN(C)CC4)c32)cc1 [13a]         pIC50          5.15
3  c1ccc(Nc2nccc3c(-c4ccccc4)c[nH]c23)cc1 [14a]         pIC50          6.67
4  COc1cc(Nc2ncnc3c(-c4ccccc4)n[nH]c23)cc(OC)c1OC [35c]         pIC50          5.24

Param item = COc1cc(Nc2nccc3c(-c4cccc(F)c4)c[nH]c23)cc(OC)c1OC [14d] ; retrieve measured pIC50. 5.84

How about Fc1cccc(-c2c[nH]c3c(Nc4ccccc4)nccc23)c1 [14b] ? 7.26

Try this compound too: COc1cc(Nc2ncnc3c(-c4cccc(F)c4)c[nH]c23)cc(OC)c1OC [26d] 5.23

Try this compound next: Fc1cccc(-c2n[nH]c3c(Nc4ccccc4)ncnc23)c1 [35b] 6.26

Another: c1ccc(Nc2ncnc3c(-c4ccccc4)n[nH]c23)cc1 [35a] 5.33

Would you mind doing COc1ccc(Cn2cc(-c3ccccc3)c3ccnc(Nc4cc(OC)c(OC)c(OC)c4)c32)cc1 [10c] as well? 5.01
